Where do the numbers come from? From patent US20250376519A1.

Tested System: T1, human DLL3 (ACRO, DLL3-H52H4) (human, UniProt Q9NYJ7 27-492)
T1 construct: Bought
T1 sequence: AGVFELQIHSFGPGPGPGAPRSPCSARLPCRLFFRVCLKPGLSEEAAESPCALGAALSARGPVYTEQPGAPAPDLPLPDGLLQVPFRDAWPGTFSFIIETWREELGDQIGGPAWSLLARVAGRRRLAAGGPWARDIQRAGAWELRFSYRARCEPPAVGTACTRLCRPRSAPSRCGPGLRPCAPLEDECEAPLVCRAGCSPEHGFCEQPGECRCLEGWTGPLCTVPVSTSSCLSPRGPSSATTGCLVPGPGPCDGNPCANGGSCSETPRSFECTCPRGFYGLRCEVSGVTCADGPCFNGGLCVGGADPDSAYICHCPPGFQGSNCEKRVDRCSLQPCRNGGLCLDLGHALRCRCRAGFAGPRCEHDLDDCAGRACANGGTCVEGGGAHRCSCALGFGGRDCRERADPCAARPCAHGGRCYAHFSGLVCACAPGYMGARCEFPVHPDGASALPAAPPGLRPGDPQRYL
Measurement Description: SPR Biacore 8K, Ab captured on Protein A
Listed binders paired with reported koff
Dear colleague, please return just the value in s⁻¹, with no unit written.

Binder | Measured Number
hu30L4H10 (antibody, human IgG1, kappa, V domains shown) VH: EVRLVQSGAEVKKPGASVKVSCKASGYTFTDYYMNWVRQSHGQSLEWMGIINPYTGDTSYNQKFRGRVTLTVDKSASTAYMELSSLRSEDTAVYYCARYHYGPHLEGYFDVWGQGTTVTVSS VL: DIQMTQSPSSLSASVGDRVTITCKASENVGYVSWYQQKPGKAPKLLIYGASNRYTGVPSRFSGSGSGTDFTLTISSLQPEDFATYYCGQSYSYPLTFGQGTKLEIKR | 0.000919

*Q* State its koff for this binder: M98CH1 (antibody, human IgG1, kappa, V domains shown, chimeric antibody of mAb98, human IgG1/kappa; also called M98CHI) VH: EVQLVESGGGLVKPGGSLKLSCAASGFTFSDYGIHWVRQAPEKGLEWVAYISSGGYTIYYADTVKGRFTISRDNAKNTLFLQMTSLRSEDTAMYYCARGDYDDIFYTMDYWGQGTSVTVSS VL: DIQMTQTTSSLSASLGDRVTISCRASRDITKFLNWYQQKPDGTVKLLIYYTSRLHSGVPSRFSGSGSGTDYSLTISNLDQEDIATYFCQQGNTLPWTFGGGTKLDIKR
*A* 0.000682

*Q* Consider the binder hu30L5H10 (antibody, human IgG1, kappa, V domains shown) VH: EVRLVQSGAEVKKPGASVKVSCKASGYTFTDYYMNWVRQSHGQSLEWMGIINPYTGDTSYNQKFRGRVTLTVDKSASTAYMELSSLRSEDTAVYYCARYHYGPHLEGYFDVWGQGTTVTVSS VL: DIQMTQSPSSLSASVGDRVTITCKASENVGYVSWYQQKPGKSPKLLIYGASNRYTGVPDRFSGSGSGTDFTLTISSLQPEDFATYYCGQSYSYPLTFGSGTKLEIKR . State its measured koff.
*A* 0.000949
